Assay: Induction of NQO1 activity in mouse Hepa-1c1c7 cells at 25 uM after 48 hrs relative to control
endpoint-name: fold change (FC)
Reply briefly: the number, and no unit.

Before answering, review these 5 worked examples.
[[record]]
input_smiles = "O=C1/C(=C/c2ccccc2O)Oc2ccccc21"
endpoint_name = "fold change (FC)"
experimental_result = 1.61

[[record]]
input_smiles = "COc1ccccc1/C=C1\\C(=O)Oc2ccc(O)cc21"
endpoint_name = "fold change (FC)"
experimental_result = 1.44

[[record]]
input_smiles = "O=C1Oc2ccc(O)cc2/C1=C/c1ccc(O)cc1"
endpoint_name = "fold change (FC)"
experimental_result = 1.6

[[record]]
input_smiles = "COc1cc(OC)c2c(c1)OC(=O)/C2=C\\c1ccccc1"
endpoint_name = "fold change (FC)"
experimental_result = 2.1

[[record]]
input_smiles = "O=C1Oc2ccc(O)cc2/C1=C/c1ccccc1Cl"
endpoint_name = "fold change (FC)"
experimental_result = 1.3


Fill in: fold change (FC) of "COc1ccccc1/C=C1\Oc2cc(O)cc(O)c2C1=O" is ___ 1.52

Entry under review: "O=C1/C(=C/c2ccccc2Cl)Oc2cc(O)ccc21" . Reported fold change (FC)? 1.3

I'd like to know its fold change (FC). The compound in question is "COc1cc(OC)c2c(c1)O/C(=C\c1ccc(N3CCN(C)CC3)cc1)C2=O" 1.4

Any idea what its fold change (FC) is? The compound is "O=C1/C(=C/c2ccc(Cl)cc2)Oc2ccc(O)cc21" 1.18

Using the record for "COc1ccc(/C=C2\Oc3cc(O)cc(O)c3C2=O)cc1" , report its fold change (FC). 0.82

// query fold change (FC) value for entry "Cc1ccc(/C=C2\Oc3ccc(O)cc3C2=O)cc1" 1.36
